Reference for the values: paper PMC7878818

measurement-target: Spindlin1 F141A/C11orf84 complex (human, UniProt Q9Y657 50-262; Q9BUA3 1-381, F141A)
Sequence (Q9Y657 50-262 F141A, chain 1 of 2): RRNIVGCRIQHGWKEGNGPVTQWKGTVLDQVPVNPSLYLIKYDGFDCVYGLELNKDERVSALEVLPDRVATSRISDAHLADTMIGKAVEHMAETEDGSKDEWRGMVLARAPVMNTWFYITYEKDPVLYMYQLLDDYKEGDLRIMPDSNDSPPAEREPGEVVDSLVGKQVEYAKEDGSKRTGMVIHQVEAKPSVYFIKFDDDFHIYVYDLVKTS
Sequence (Q9BUA3 whole entry, chain 2 of 2): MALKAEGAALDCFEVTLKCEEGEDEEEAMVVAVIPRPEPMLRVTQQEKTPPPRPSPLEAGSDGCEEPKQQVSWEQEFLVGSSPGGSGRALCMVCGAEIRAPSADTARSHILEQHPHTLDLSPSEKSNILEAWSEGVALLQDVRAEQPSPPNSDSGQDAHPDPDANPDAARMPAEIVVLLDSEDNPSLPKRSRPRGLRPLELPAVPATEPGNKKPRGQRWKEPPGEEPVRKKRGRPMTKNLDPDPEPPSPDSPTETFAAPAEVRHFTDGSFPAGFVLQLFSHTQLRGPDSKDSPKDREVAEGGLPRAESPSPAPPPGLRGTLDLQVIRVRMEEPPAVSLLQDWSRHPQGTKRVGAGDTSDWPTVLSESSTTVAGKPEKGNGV
protocol-description: ITC
Ends that are not written are not given here. Me3 = trimethyl group on lysine (trimethyl-lysine)
experimental-endpoint: Kd (nM)
I only need the number, in nM, no unit after it.

Looking up ARTK(Me3)QTARK(Me3)STG [H3K4me3K9me3 peptide] , I see its Kd listed as 869
